Tested on: Candida tropicalis NRRL-Y-112
MEASUREMENT NOTES: In vitro antifungal MIC, Candida tropicalis NRRL-Y-112
Format: cell-based
MEASUREMENT SETUP: NRRLY112; Candida tropicalis NRRL-Y-112; 35°-37° C., 48 hours; read-out: MIC
MEASURED QUANTITY: MIC (µg/mL)
Please reply with the bare figure in µg/mL and do not write the unit itself.

                                   compound  measured_quantity  unit_name  readout_number
0  O=C(O)COCCN1Sc2ccccc2[S+]1[O-] (stereo not drawn)                MIC      µg/mL             100
1  CCCN1Sc2ccccc2[S+]1[O-] (stereo not drawn) [Example 3, 2-n-propyl-1,3,2-benzodithiazole-1-oxide]                MIC      µg/mL            0.78
2  CCCCCCCCCN1Sc2ccccc2[S+]1[O-] (stereo not drawn) [Example 7, 2-n-nonyl-1,3,2-benzodithiazole-1-oxide]                MIC      µg/mL            1.56
3  [O-][S+]1c2ccccc2SN1CCCc1ccccc1 (stereo not drawn)                MIC      µg/mL            6.25
4  [O-][S+]1c2ccccc2SN1CCN1CCCCC1 (stereo not drawn)                MIC      µg/mL              25

Identify measured MIC obtained with Candida tropicalis NRRL-Y-112 for [O-][S+]1c2ccccc2SN1c1ccc2c(c1)OCO2 (stereo not drawn) .
50

State the measured MIC (Candida tropicalis NRRL-Y-112) of C#CCN1Sc2ccccc2[S+]1[O-] (stereo not drawn)
1.56

Recall the reported MIC of CS(=O)(=O)OCCN1Sc2ccccc2[S+]1[O-] (stereo not drawn) when tested on Candida tropicalis NRRL-Y-112.
25

Under Candida tropicalis NRRL-Y-112, report MIC for C=CCN1Sc2ccccc2[S+]1[O-] (stereo not drawn) [Example 10, 2-allyl-1,3,2-benzodithiazole-1-oxide]
0.78

Report MIC from Candida tropicalis NRRL-Y-112 testing of CN(C)CCCN1Sc2ccccc2[S+]1[O-] (stereo not drawn)
50

Please report MIC with Candida tropicalis NRRL-Y-112 for item CC(C)(C)CCN1Sc2ccccc2[S+]1[O-] (stereo not drawn) .
3.12

Report the value of MIC obtained on Candida tropicalis NRRL-Y-112 for COC(=O)CCCCCCCN1Sc2ccccc2[S+]1[O-] (stereo not drawn) .
3.12

----------
Tested on: Candida tropicalis NRRL-Y-112
MEASUREMENT NOTES: In vitro antifungal MIC, Candida tropicalis NRRL-Y-112
Assay type: cell-based
MEASUREMENT SETUP: NRRLY112; Candida tropicalis NRRL-Y-112; 35°-37° C., 48 hours; read-out: MIC
Measured MIC values are reported for all entries that follow.
Field: numeric (µg/mL). Do not append units.

Consider the worked cases shown below.
>>> df
                                   molecule  readout_number
0  [O-][S+]1c2ccccc2SN1Cc1ccc(Cl)cc1Cl (stereo not drawn)            3.12
1  [O-][S+]1c2ccccc2SN1CCc1ccccc1 (stereo not drawn)            3.12

From here, focus on the item given below.
Specify measured MIC for [O-][S+]1c2ccccc2SN1Cc1ccccc1 (stereo not drawn) [Example 35, 2-benzyl-1,3,2-benzodithiazole-1-oxide] .
1.56
